In this section we review reported EC50 values for a set of compounds.
- system: human β2 adrenergic receptor (Homo sapiens)
- Sequence (P07550 whole entry): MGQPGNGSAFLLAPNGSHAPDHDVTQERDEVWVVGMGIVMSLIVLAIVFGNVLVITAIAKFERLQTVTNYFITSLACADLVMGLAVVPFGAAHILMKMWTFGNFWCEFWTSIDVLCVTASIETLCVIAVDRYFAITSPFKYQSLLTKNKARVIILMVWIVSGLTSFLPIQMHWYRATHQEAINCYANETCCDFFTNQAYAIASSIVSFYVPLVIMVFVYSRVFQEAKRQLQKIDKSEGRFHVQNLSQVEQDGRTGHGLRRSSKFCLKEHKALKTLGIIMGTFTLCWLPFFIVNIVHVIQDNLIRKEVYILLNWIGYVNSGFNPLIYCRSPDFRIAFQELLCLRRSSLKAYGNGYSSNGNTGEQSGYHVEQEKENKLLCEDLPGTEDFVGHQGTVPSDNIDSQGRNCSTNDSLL
- assayProcedure: Whole-cell cAMP Flashplate assay using CHO-K1 cells stably expressing human β2 adrenergic receptor
- conditionInfo: cAMP production
Where a name gives a salt, the structure may show the parent alone.
Numeric only. Scale: nM

For Cc1cc(CNC[C@H](O)c2ccc(O)c3[nH]c(=O)ccc23)ccc1NC(=O)CCc1ccc(-c2ccccc2)c(NC(=O)OC2CC[N+](C)(C)CC2)c1 [Example 11, trifluoroacetate] on human β2 adrenergic receptor (Homo sapiens), measured EC50 was 3.7

For Cc1cc(CNC[C@H](O)c2ccc(O)c3[nH]c(=O)ccc23)ccc1NC(=O)CCCc1ccc(-c2ccccc2)c(NC(=O)OC2CC[N+](C)(C)CC2)c1 [Example 22, trifluoroacetate] on human β2 adrenergic receptor (Homo sapiens), measured EC50 was 2.2

For CCOc1cc(NC(=O)CCCc2ccc(-c3ccccc3)c(NC(=O)OC3CC[N+](C)(C)CC3)c2)c(Cl)cc1CNC[C@H](O)c1ccc(O)c2[nH]c(=O)ccc12 [Example 26, trifluoroacetate] on human β2 adrenergic receptor (Homo sapiens), measured EC50 was 0.9

For C[N+]1(C)CCC(OC(=O)Nc2cc(CCCOCCCCCNC[C@H](O)c3ccc(O)c4[nH]c(=O)ccc34)ccc2-c2ccccc2)CC1 [Example 78, trifluoroacetate] on human β2 adrenergic receptor (Homo sapiens), measured EC50 was 1.3

For C[N+]1(C)[C@@H]2CC(OC(=O)Nc3cc(CCCC(=O)Nc4ccc(CNC[C@H](O)c5ccc(O)c6[nH]c(=O)ccc56)cc4Cl)ccc3-c3ccccc3)C[C@H]1[C@@H]1O[C@@H]12 (some centres unmarked) [Example 37] on human β2 adrenergic receptor (Homo sapiens), measured EC50 was 4

---

In this section we review reported pIC50 values for a set of molecules.
- system: human M3 muscarinic receptor (Homo sapiens)
- Construct: expressed in transfected cells; host or cells: CHO-K1
- Sequence (P20309 whole entry): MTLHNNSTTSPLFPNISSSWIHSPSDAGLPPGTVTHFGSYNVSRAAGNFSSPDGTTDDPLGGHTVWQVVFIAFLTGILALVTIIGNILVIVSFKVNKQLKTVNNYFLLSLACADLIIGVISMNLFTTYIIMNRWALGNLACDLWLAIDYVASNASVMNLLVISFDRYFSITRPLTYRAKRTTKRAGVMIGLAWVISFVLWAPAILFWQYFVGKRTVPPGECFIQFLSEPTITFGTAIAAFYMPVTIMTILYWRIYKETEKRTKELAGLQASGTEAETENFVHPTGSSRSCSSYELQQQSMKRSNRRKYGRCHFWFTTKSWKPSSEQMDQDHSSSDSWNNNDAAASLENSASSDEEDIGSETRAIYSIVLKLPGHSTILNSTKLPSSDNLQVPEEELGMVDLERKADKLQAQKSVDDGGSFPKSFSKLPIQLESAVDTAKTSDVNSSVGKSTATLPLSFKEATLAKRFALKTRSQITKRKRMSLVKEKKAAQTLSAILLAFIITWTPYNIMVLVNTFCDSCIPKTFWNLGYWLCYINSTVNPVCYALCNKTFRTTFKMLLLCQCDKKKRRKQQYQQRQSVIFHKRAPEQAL
- assayProcedure: Inhibitory effect on methacholine-induced calcium influx, FLIPR assay, CHO-K1 cells stably expressing the human M3 muscarinic receptor
- Type: cell-based
- conditionInfo: inhibition of calcium influx induced by methacholine
Structures can show the parent of a compound that is named as a salt.
API: returns pIC50 as number; meaning -log10 of concentration in mol/L.

Previously resolved entries follow.
COc1cc(NC(=O)CCCc2ccc(-c3ccccc3)c(NC(=O)OC3CC[N+](C)(C)CC3)c2)c(Br)cc1CNC[C@H](O)c1ccc(O)c2[nH]c(=O)ccc12 [Example 25, trifluoroacetate]    7.72
C[N+]1(C)CCC(OC(=O)Nc2cc(CCCCCCCCCNC[C@H](O)c3ccc(O)c4[nH]c(=O)ccc34)ccc2-c2ccccc2)CC1 [Example 76, trifluoroacetate]    7.42

// next item, pIC50 requested
The molecule listed as CCOc1cc(NC(=O)CCCc2ccc(-c3ccccc3)c(NC(=O)OC3CC[N+](C)(C)CC3)c2)ccc1CNC[C@H](O)c1ccc(O)c2[nH]c(=O)ccc12 [Example 27, trifluoroacetate] shows pIC50 equal to 7.79

---

- system: human β2 adrenergic receptor (Homo sapiens)
- assayProcedure: Whole-cell cAMP Flashplate assay using CHO-K1 cells stably expressing human β2 adrenergic receptor
- conditionInfo: cAMP production
Counter-ions that a name gives are not always drawn.
In this section we review reported pEC50 values for a set of compounds.
API: returns pEC50 as number; meaning -log10 of concentration in mol/L.

COc1cc(NC(=O)CCCc2ccc(-c3ccccc3)c(NC(=O)OC3CC[N+](C)(C)CC3)c2)c(Br)cc1CNC[C@H](O)c1ccc(O)c2[nH]c(=O)ccc12 [Example 25, trifluoroacetate]    9.40
COc1cc(NC(=O)CCc2ccc(-c3ccccc3)c(NC(=O)OC3CC[N+](C)(C)CC3)c2)c(Cl)cc1CNC[C@H](O)c1ccc(O)c2[nH]c(=O)ccc12 [Example 2, trifluoroacetate]    8.96

The compound listed as `C[N+]1(C)[C@@H]2C[C@@H](OC(=O)Nc3ccc(CCCC(=O)Nc4ccc(CNC[C@H](O)c5ccc(O)c6[nH]c(=O)ccc56)cc4Br)cc3-c3ccccc3)C[C@H]1[C@@H]1O[C@@H]12` shows pEC50 equal to 9.52

The compound listed as C[N+]1(C)CCC(OC(=O)Nc2cc(CCC(=O)Nc3ccc(CNC[C@H](O)c4ccc(O)c5[nH]c(=O)ccc45)cn3)ccc2-c2ccccc2)CC1 [Example 17, trifluoroacetate] shows pEC50 equal to 8.23

The compound listed as `COc1cc(NC(=O)CCc2ccc(-c3ccccc3)c(NC(=O)O[C@@H]3C[C@@H]4[C@H]5O[C@H]5[C@H](C3)[N+]4(C)C)c2)c(Cl)cc1CNC[C@H](O)c1ccc(O)c2[nH]c(=O)ccc12` shows pEC50 equal to 8.85
